TARGET DESC: CCAAT/enhancer-binding protein beta (Homo sapiens) (UniProt P17676)
Sequence (P17676 whole entry, looked up): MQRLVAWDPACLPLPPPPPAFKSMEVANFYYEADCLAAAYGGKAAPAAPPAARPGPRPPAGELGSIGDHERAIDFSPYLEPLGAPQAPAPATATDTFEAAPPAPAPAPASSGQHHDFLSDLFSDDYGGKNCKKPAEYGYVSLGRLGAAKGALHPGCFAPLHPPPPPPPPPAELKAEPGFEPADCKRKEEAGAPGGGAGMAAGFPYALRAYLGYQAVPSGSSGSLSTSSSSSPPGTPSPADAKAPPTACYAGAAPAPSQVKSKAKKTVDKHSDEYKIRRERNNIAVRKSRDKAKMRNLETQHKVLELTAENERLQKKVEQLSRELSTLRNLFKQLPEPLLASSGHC
TEST PROTOCOL: ATG_C_EBP_CIS: Attagene CIS-FACTORIAL HepG2 Assay for human CCAAT/Enhancer Binding Protein (C/EBP) beta (AID 2282927)
RUN CONDITIONS: HepG2 Attagene cis-factorial transcription factor reporter; actives raise or lower the signal
Active and inactive are the calls of the source. How the source made its calls: active means hit-call score of the fitted dose curve at least 0.9, where 1 is the maximum; inactive means score below 0.9.
Write down the outcome that applies. Available outcomes: 1 = active, 0 = inactive

Request: Write down the call the test reported for this compound. Item: Cc1cc(C)c(C)c(C)c1
Result: 0

Request: Write down the call the test reported for this compound. Item: CC1=Nc2ccc3ccccc3c2C1(C)C
Result: 0

Request: Write down the call the test reported for this compound. Item: Cc1cnc(NC(=O)C2=C(O)c3ccccc3S(=O)(=O)N2C)s1
Result: 0

Request: Write down the call the test reported for this compound. Item: CCCCCCCCCCc1ccccc1
Result: 0

Request: Write down the call the test reported for this compound. Item: CC=CC(=O)N(CC)c1ccccc1C
Result: 0

Request: Write down the call the test reported for this compound. Item: COC=O
Result: 0

Request: Write down the call the test reported for this compound. Item: C=C(C)[C@@H]1CCC2=CCC[C@@H](C)[C@]2(C)C1
Result: 0

Request: Write down the call the test reported for this compound. Item: CN(C)c1ccc(C(=N)c2ccc(N(C)C)cc2)cc1
Result: 1

Request: Write down the call the test reported for this compound. Item: O=C(O)CCCCCCCCCC(=O)O
Result: 0

Request: Write down the call the test reported for this compound. Item: CCOc1nc(F)cc2nc(S(=O)(=O)Nc3c(Cl)cccc3C(=O)OC)nn12
Result: 0

Request: Write down the call the test reported for this compound. Item: CCc1ccc2c(c1)C(=O)c1ccccc1C2=O
Result: 0

Request: Write down the call the test reported for this compound. Item: CCC(CC)C(=O)O
Result: 0

Request: Write down the call the test reported for this compound. Item: C1=CCCC1
Result: 0

Request: Write down the call the test reported for this compound. Item: C=CCCCCCCCCC(=O)OCCCC
Result: 0

Request: Write down the call the test reported for this compound. Item: CC1OC1C1CCC2(C)OC2C1 (stereo unspecified)
Result: 0

Request: Write down the call the test reported for this compound. Item: CC(C)=CCC[C@H](C)CCO
Result: 0

Request: Write down the call the test reported for this compound. Item: CCC(Cc1ccccc1)(C(=O)c1ccc(N2CCOCC2)cc1)N(C)C (stereo unspecified)
Result: 0

Request: Write down the call the test reported for this compound. Item: O=c1[nH]nc(-c2ccc([N+](=O)[O-])o2)o1
Result: 0

Request: Write down the call the test reported for this compound. Item: O=C1c2ccccc2C(=O)C1c1nc2ccccc2c(Br)c1O
Result: 0

Request: Write down the call the test reported for this compound. Item: O=S(=O)(O)c1ccc2cc(O)c(S(=O)(=O)O)cc2c1
Result: 0

Request: Write down the call the test reported for this compound. Item: Cc1cccc(N)n1
Result: 0

Request: Write down the call the test reported for this compound. Item: Cc1ccc(OC(=O)CC(C)C)cc1
Result: 0

Request: Write down the call the test reported for this compound. Item: CCC(=O)Oc1ccc(/C(CC)=C(\CC)c2ccc(OC(=O)CC)cc2)cc1
Result: 0

Request: Write down the call the test reported for this compound. Item: COC(=O)c1ccccc1OC
Result: 0

Request: Write down the call the test reported for this compound. Item: Cc1cc(C)c(C)c(O)c1
Result: 0

Request: Write down the call the test reported for this compound. Item: Clc1nc2ccccc2s1
Result: 0

Request: Write down the call the test reported for this compound. Item: NC(=O)C1CO1 (stereo unspecified)
Result: 0

Request: Write down the call the test reported for this compound. Item: CC(C)(C)C(=O)CCc1ccc(Cl)cc1
Result: 0

Request: Write down the call the test reported for this compound. Item: O=C1CCCC(=O)O1
Result: 0

Request: Write down the call the test reported for this compound. Item: OC1OCCOC1O (stereo unspecified)
Result: 0

Request: Write down the call the test reported for this compound. Item: CCCCCC(C)O (stereo unspecified)
Result: 0

Request: Write down the call the test reported for this compound. Item: FC(F)=C(F)OC(F)(F)C(F)(F)C(F)(F)F
Result: 0

Request: Write down the call the test reported for this compound. Item: c1c[nH]cn1
Result: 0

Request: Write down the call the test reported for this compound. Item: COc1c2ccoc2cc2oc(=O)ccc12
Result: 0

Request: Write down the call the test reported for this compound. Item: CC=CC(F)(F)C(F)(F)C(F)(F)F
Result: 0

Request: Write down the call the test reported for this compound. Item: COC(=O)/C=C\C(=O)O
Result: 0

Request: Write down the call the test reported for this compound. Item: O=[N+]([O-])C1(Br)COCOC1
Result: 0

Request: Write down the call the test reported for this compound. Item: O=C(Nc1cccc(C(F)(F)F)c1)c1cc(Br)cc(Br)c1O
Result: 0

Request: Write down the call the test reported for this compound. Item: CCCCCCCCCCCCCCCC[N+](C)(C)CC
Result: 0

Request: Write down the call the test reported for this compound. Item: CCCCCCCC[N+](C)(CCCCCCCC)CCCCCCCC
Result: 0

Request: Write down the call the test reported for this compound. Item: C[Si](C)(CCCN)O[Si](C)(C)CCCN
Result: 0

Request: Write down the call the test reported for this compound. Item: CCCCCCCCCCCSCC(=O)O
Result: 0

Request: Write down the call the test reported for this compound. Item: Oc1ccc(Cl)cc1Cc1cc(Cl)ccc1O
Result: 0

Request: Write down the call the test reported for this compound. Item: C=CC(C)(CCC=C(C)C)OC(=O)CC(C)C (stereo unspecified)
Result: 0

Request: Write down the call the test reported for this compound. Item: O=C(C=Cc1ccccc1)OCc1ccccc1
Result: 0

Request: Write down the call the test reported for this compound. Item: SCCc1cnccn1
Result: 0

Request: Write down the call the test reported for this compound. Item: O=c1n(CCO)c(=O)n(CCO)c(=O)n1CCO
Result: 0

Request: Write down the call the test reported for this compound. Item: CCCCCCCC/C=C\CCCCCCCC(=O)O
Result: 0

Request: Write down the call the test reported for this compound. Item: CCCCNc1ccc(NCCCC)c2c1C(=O)c1ccccc1C2=O
Result: 0

Request: Write down the call the test reported for this compound. Item: CCCCC/C=C\CCC=O
Result: 0

Request: Write down the call the test reported for this compound. Item: CC(C)C1=CC2=CC[C@@H]3[C@](C)(CCC[C@@]3(C)C(=O)O)[C@H]2CC1
Result: 0

Request: Write down the call the test reported for this compound. Item: COCC(C)N (stereo unspecified)
Result: 0

Request: Write down the call the test reported for this compound. Item: CC=C1CC2C=CC1C2 (stereo unspecified)
Result: 0

Request: Write down the call the test reported for this compound. Item: CCCC(=O)OCc1ccccc1
Result: 0

Request: Write down the call the test reported for this compound. Item: CO[Si](CCC1CCC2OC2C1)(OC)OC (stereo unspecified)
Result: 0

Request: Write down the call the test reported for this compound. Item: CCCCCCCCCCCCCCCCCC#N
Result: 0

Request: Write down the call the test reported for this compound. Item: O=P(O)(O)Oc1ccccc1
Result: 0

Request: Write down the call the test reported for this compound. Item: [Cl][In]([Cl])[Cl]
Result: 0

Request: Write down the call the test reported for this compound. Item: C[Si](C)(C)O[Si](O)(O)O
Result: 0

Request: Write down the call the test reported for this compound. Item: COC(=O)c1sccc1S(N)(=O)=O
Result: 0

Request: Write down the call the test reported for this compound. Item: O=C1Nc2ccccc2C1(c1ccc(O)cc1)c1ccc(O)cc1
Result: 0

Source: PubChem BioAssay (EPA / NIEHS)
